Target: T1, human IL-1RAcP on 293T/17-FR cells (human, UniProt Q9NPH3 21-570)
T1 sequence (looked up): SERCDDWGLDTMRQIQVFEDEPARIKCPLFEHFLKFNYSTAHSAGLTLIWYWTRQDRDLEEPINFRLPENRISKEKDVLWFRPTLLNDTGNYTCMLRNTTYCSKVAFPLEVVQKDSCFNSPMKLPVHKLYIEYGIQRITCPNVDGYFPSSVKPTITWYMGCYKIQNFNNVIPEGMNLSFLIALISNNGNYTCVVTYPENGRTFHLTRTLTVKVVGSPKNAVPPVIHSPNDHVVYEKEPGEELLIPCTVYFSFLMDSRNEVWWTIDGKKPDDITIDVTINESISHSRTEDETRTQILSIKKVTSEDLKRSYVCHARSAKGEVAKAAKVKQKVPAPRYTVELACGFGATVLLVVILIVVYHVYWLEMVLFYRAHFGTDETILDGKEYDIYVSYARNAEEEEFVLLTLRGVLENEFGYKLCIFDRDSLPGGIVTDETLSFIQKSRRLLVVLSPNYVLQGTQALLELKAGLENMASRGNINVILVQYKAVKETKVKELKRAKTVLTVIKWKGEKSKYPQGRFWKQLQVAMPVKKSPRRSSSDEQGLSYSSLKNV
Assay: cell-based or functional assay
# functional reporter gene assay (% inhibition), 0.04 µg/mL mAb annotations

Observe how each entry below is paired with its result.
Binder	Measured Result
P013.S.01.B.H05 (antibody, V domains shown, rabbit monoclonal antibody; also called P013.A.00109.F08) VH: LEQSGGGAEGGLVKPGGSLELCCKASGFSLSNSYWICWVRQAPGKGLEWIGCIYVGSSGSTYYASWVNGRFTLSRDIDQSTGCLQLNSLTAADTAIYYCARDGATSTSGHLFELWGQGTLVTVSS VL: ALVMTQTPSPVSAAVGGTVTINCQASEDIYSNLAWFQQKPGQPPKLLIYRASTLASGVPSRFSGSGSGTEFTLTISGVQSDDAATYYCLGIYTYISADGSLYNAFGGGTEVVVK	20%
P013.S.01.B.A02 (antibody, V domains shown, rabbit monoclonal antibody; also called P013.A.00003.H11) VH: QSVEESGGRLVTPGTPLTLTCTVSGIDLSSYAMGWVRQAPGKGLEYIGVITSSATTYYASWAKGRFTISKTSSTTVDLRVTSLTTEDTATYFCARGGPGYSTNTHYAFDPWGPGTLVTVSS VL: AFEMTQTPSSVSEPVGGTVTIKCQASQSIYIYLSWYQQKPGQRPKLLIYDASKLASGVPSRFSGSGSGTEFTLTISGVQSDDAATYYCQQGATTYNVDNVFGGGTEVVVK	46%

input: Answer with reported functional reporter gene assay (% inhibition), 0.04 µg/mL mAb of P013.S.01.B.F02 (antibody, V domains shown, rabbit monoclonal antibody; also called P013.A.00043.D08) VH: QEQLVESGGGLVQPEGSLTLTCTASGFSFSSNYWMCWVRQAPGKGLEWIACIYTGGSGVTYYASWAKGRFTLSKTSSTTVTLQVTSLTAADTATYFCARDLVVVTSFNLWGQGTLVTVSS VL: ALMMTQTPSPVSAAVGGTVTINCQASEDIYSNLAWYQQKPGQPPKLLIYSASTLASGVPSRFSGSGSGTEFTLTISGVQSDDAATYYCLGVCTDISVDDVYNSFGGGTEVVVK
output: 45%

These measurements were taken from patent US20190106487A1.
